FYI, the data here is from ChEMBL document CHEMBL1201862.

Tested on: OVCAR-3
assay name: NCI tumour cell line growth inhibition, 48 h
The source made the active and inactive calls. Rule as the data show it: active = GI50 up to about 1.1 µM and inactive = higher.
Reported GI50 values are given for each entry in this list.

As a guide, the following entries are already answered.
- compound: "CC1C2CC(CC23OCC(CCl)O3)C1(C)C (stereo not drawn)"
  attribute measured: "GI50"
  value measured: "> 100 µM (inactive)"
- compound: "Cc1ccc(/C=C2\\CCCC(CN(C)C)C2=O)cc1 (stereo not drawn)"
  attribute measured: "GI50"
  value measured: "1.76 µM (inactive)"
- compound: "O=C(Cc1ccccc1)N/N=C/c1ccccc1O"
  attribute measured: "GI50"
  value measured: "3.36 µM (inactive)"
- compound: "Cc1cc2[nH]c3c(C#N)c(-c4ccccc4)c(CN4CCOCC4)c(=O)n3c2cc1C"
  attribute measured: "GI50"
  value measured: "> 100 µM (inactive)"
- compound: "COC1(c2ccc(Cl)cc2)SC=C(C)n2c1noc2=O (stereo not drawn)"
  attribute measured: "GI50"
  value measured: "29.7 µM (inactive)"

query: Give OVCAR-3 GI50 for N#Cc1c(-c2ccccc2)c(C#N)c(=S)n(C2OC(CO)C(O)C(O)C2O)c1N (stereo not drawn)
result: > 100 µM (inactive)

query: Give OVCAR-3 GI50 for CC1CCC23COC(=O)C2C(O)CCC3C1(C)CC(O)c1ccoc1 (stereo not drawn)
result: > 100 µM (inactive)

query: Give OVCAR-3 GI50 for "CNC/C(Cl)=N/S(=O)(=O)c1ccc(C)cc1"
result: 12.4 µM (inactive)

* * *

Test system: RPMI-8226
assay name: NCI tumour cell line growth inhibition, 48 h
Activity calls are given as the source filed them. No stated cut-off is given here; in the data, active = GI50 up to about 1.1 µM and inactive = higher.
Bench note: report the call from label 1 for active, label 0 for inactive

Consider the following illustrative entries.
- compound: "O=[N+]([O-])C(/C=C(\\Cl)[N+](=O)[O-])=C(Nc1ccccc1)Nc1ccccc1"
  class: "label 0"
- compound: "O=C(CC(=O)c1ccccc1)C(=O)Nc1ccc(Cl)cc1"
  class: "label 0"
- compound: "CC1C2CC(CC23OCC(CCl)O3)C1(C)C (configuration not stated)"
  class: "label 0"
- compound: "N#Cc1nc(/C=C/c2nc(C#N)c(N)o2)oc1N"
  class: "label 0"
- compound: "O=C(Cn1c2ccc(Br)cc2c2nc3ccccc3nc21)NCc1ccccc1"
  class: "label 0"

query: What classification did CNC(=O)C(C)C1C(=O)/C(=C(O)/C=C\C(C)=C\C(C)C2OC3(C)OC(C=CC34CO4)C2C)C(=O)N1C1CCC(O)C(C)O1 (configuration not stated) end up with in this test?
result: label 0

query: What classification did "FC(F)(F)c1cccnc1Sc1nc2ccccc2s1" end up with in this test?
result: label 0

query: What classification did CC(NC1=NCCO1)c1ccsc1 (configuration not stated) end up with in this test?
result: label 0

query: What classification did "CCCCCCCCCCCCc1ccsc1-c1ccc(-c2ccc(-c3sccc3CCCCCCCCCCCC)s2)s1" end up with in this test?
result: label 0

query: What classification did "N#C/C(C(=O)Nc1ccccc1)=C(/N)N1CCCC1" end up with in this test?
result: label 0

query: What classification did "C=CCSSCC=C" end up with in this test?
result: label 0

query: What classification did CCN(CC)CCC(=O)OC1C(C)=CC(C)C(=O)CC(C(C)CC2CCC(O)C(OC)C2)OC(=O)C2CCCCN2C(=O)C(=O)[C@@]2(O)OC(CCC2C)CC(OC)\C(C)=C/C=C/C=C/C(C)CC(C)C(=O)C1OC (some centres not stated) end up with in this test?
result: label 1

query: What classification did "CCOC(=O)Cc1ccc(Nc2nc3cc(F)c(F)cc3nc2C(=O)OCC)cc1" end up with in this test?
result: label 0

query: What classification did "O=c1c2ccccc2c(=O)n2n1-c1cccc(c1)CSSCc1cccc-2c1" end up with in this test?
result: label 0

query: What classification did CCOC(=O)C(OP(=O)(OCC)OCC)C(F)(F)F (configuration not stated) end up with in this test?
result: label 0

query: What classification did "COCCN1C2=CCCCC2=Nc2c(N)nc(N)nc21" end up with in this test?
result: label 0

query: What classification did COP(=O)(O)/C=C/C(NC(=O)C(Cl)(Cl)Cl)c1ccccc1 (configuration not stated) end up with in this test?
result: label 0

* * *

System: M19-MEL
assay name: NCI tumour cell line growth inhibition, 48 h
Activity calls are given as the source filed them. Cut-off read from the data, not from the text of the source: active = GI50 up to about 1.1 µM and inactive = higher.
Reported GI50 values are given for each entry in this list.

query: Using the record for COc1cc(C2Oc3cc(-c4oc5cc(O)cc(O)c5c(=O)c4O)ccc3OC2CO)ccc1O (centres undefined) [DEHYDROSILYLBIN] , report its GI50.
result: 14.4 µM (inactive)

query: Using the record for CC(=O)C1Cn2c(nc3ccccc32)C[Se]1 (centres undefined) , report its GI50.
result: 1.99 µM (inactive)

query: Using the record for "COCCN1C2=CCCCC2=Nc2c(N)nc(N)nc21" , report its GI50.
result: 24.3 µM (inactive)

query: Using the record for O=C(CC(=O)N1N=C(n2ccc3ccccc32)CC1c1ccccc1)Nc1ccc(Cl)cc1 (centres undefined) , report its GI50.
result: > 100 µM (inactive)

query: Using the record for "COc1cc(CNc2ccc(C)cc2)cc(OC)c1OC" , report its GI50.
result: 0.33 µM (active)

query: Using the record for "NNC(=O)C(=O)N/N=C(\CCC(=O)Nc1ccc(Cl)cc1)Cc1nc2ccccc2s1" , report its GI50.
result: 17.4 µM (inactive)

query: Using the record for c1ccc(C2=NN(c3ccccc3)C3(S2)SC(c2ccccc2)(c2ccccc2)c2ccccc23)cc1 (centres undefined) , report its GI50.
result: > 100 µM (inactive)

* * *

Tested on: MDA-MB-435
assay name: NCI tumour cell line growth inhibition, 48 h
The source made the active and inactive calls. No stated cut-off is given here; in the data, active = GI50 up to about 1.1 µM and inactive = higher.
attribute measured: GI50

As a guide, the following entries are already answered.
- compound: "CC(C)C(C(=O)O)N1C(=O)c2ccccc2C1=O (configuration not stated)"
  GI50: "> 100 µM (inactive)"
- compound: "CN(CCCNC(=O)c1nn(-c2ccc(Cl)cc2Cl)c2c1ccc1ccccc12)CCCNC(=O)c1nn(-c2ccc(Cl)cc2Cl)c2c1ccc1ccccc12"
  GI50: "1.71 µM (inactive)"
- compound: "NC(=O)CC1(O)C=CC(=O)C=C1"
  GI50: "> 100 µM (inactive)"

query: Using the record for "Cc1oc2c(c1C)S(=O)(=O)C(C#N)=CN2" , report its GI50.
result: > 100 µM (inactive)

* * *

Tested on: HT-29
assay name: NCI tumour cell line growth inhibition, 48 h
Calls of active or inactive are those of the source. Rule as the data show it: active = GI50 up to about 1.1 µM and inactive = higher.
attribute measured: GI50

- compound: "N#Cc1nc(/C=C/c2nc(C#N)c(N)o2)oc1N"
  GI50: "> 10 µM (inactive)"
- compound: "O=C(CC1C(=O)Nc2ccccc2[S+]1[O-])Nc1ccc(Cl)cc1 (centres undefined)"
  GI50: "> 100 µM (inactive)"

query: Using the record for "COc1cc(OC(=O)c2c(O)cc(O)c(O)c2C)cc(C)c1C(=O)Oc1cc(C)c(C(=O)O)c(O)c1" , report its GI50.
result: > 100 µM (inactive)

query: Using the record for "O=C(Cc1ccccc1)NN1C(=O)/C(=C\c2ccc([N+](=O)[O-])cc2)S/C1=N\c1ccccc1" , report its GI50.
result: > 100 µM (inactive)

query: Using the record for COc1cc(C2Oc3cc(-c4oc5cc(O)cc(O)c5c(=O)c4O)ccc3OC2CO)ccc1O (centres undefined) [DEHYDROSILYLBIN] , report its GI50.
result: 25.9 µM (inactive)

* * *

Test system: SW-620
assay name: NCI tumour cell line growth inhibition, 48 h
Activity calls are given as the source filed them. No stated cut-off is given here; in the data, active = GI50 up to about 1.1 µM and inactive = higher.
attribute measured: GI50

As a guide, the following entries are already answered.
- compound: "C[C@]12CCCC(=O)C1(O)C[C@H](C(=O)O)CC2 (stereo partly specified)"
  GI50: "> 100 µM (inactive)"
- compound: "COc1ccccc1NC(=O)C1=C(C)NC(C)=C(C(=O)Nc2ccccc2OC)C1/C=C/c1ccccc1"
  GI50: "> 100 µM (inactive)"
- compound: "O=C1Nc2ccccc2/C1=N/Nc1ccc([N+](=O)[O-])cc1[N+](=O)[O-]"
  GI50: "> 100 µM (inactive)"
- compound: "CN1CCN(CN2C(=O)C3C4C=CC(C3C2=O)C2C(=O)N(CN3CCN(C)CC3)C(=O)C42)CC1 (stereo unspecified)"
  GI50: "4.97 µM (inactive)"
- compound: "c1ccc(C2=NN(c3ccccc3)C3(S2)SC(c2ccccc2)(c2ccccc2)c2ccccc23)cc1 (stereo unspecified)"
  GI50: "> 100 µM (inactive)"

query: Using the record for "Fc1cc(C2=Nn3c(CNc4ccc(Cl)cc4)nnc3S/C2=C\c2ccc(-c3ccc(Cl)cc3)o2)c(Cl)cc1Cl" , report its GI50.
result: > 100 µM (inactive)

query: Using the record for "CSc1ccc(/C=C2/C[N+](C)(C)C/C(=C/c3ccc(SC)cc3)C2=O)cc1" , report its GI50.
result: 12.2 µM (inactive)

query: Using the record for "Oc1cn(-c2ccc(Cl)cc2)nc1-c1nnc(Nc2ccccc2)o1" , report its GI50.
result: 19.1 µM (inactive)

query: Using the record for CC1C2CC(CC2=O)C1(C)C (stereo unspecified) , report its GI50.
result: > 100 µM (inactive)

query: Using the record for "Cc1cc(NS(=O)(=O)c2ccc(/N=N/c3c(O)c(C(=O)O)cc4ccccc34)cc2)nc(C)n1" , report its GI50.
result: > 100 µM (inactive)

query: Using the record for "O=C(Cn1c2ccc(Br)cc2c2nc3ccccc3nc21)NCc1ccccc1" , report its GI50.
result: > 100 µM (inactive)
